For each entry below, report its IC50 value.
system: A-549; experiment: Cytotoxic activity, IC50, A-549; assay type: cell-based; conditions: Homo sapiens, A549
Answers are plain numbers, in µM.

>>> observed("COc1c(C)cc2c(c1O)[C@@H]1[C@@H]3Cc4c(OC(C)=O)c(C)c5c(c4[C@H](CNC(=O)Cc4ccccc4)N3[C@@H](O)[C@H](C2)N1C)OCO5")
0.0007
>>> observed("COc1c(C)cc2c(c1O)C1C3Cc4c(OC(C)=O)c(C)c5c(c4C(COC(=O)C=Cc4ccccc4)N3C(O)C(C2)N1C)OCO5 (stereo not shown)")
0.0007
>>> observed("COCOc1c(OC)c(C)cc2c1C1C3Cc4c(OC(C)=O)c(C)c5c(c4C(COC(=O)C=Cc4ccccc4)N3C(C#N)C(C2)N1C)OCO5 (stereo not shown)")
0.07
>>> observed("C/C=C/C(=O)NC[C@H]1c2c(c(OC(C)=O)c(C)c3c2OCO3)C[C@H]2[C@H]3c4c(cc(C)c(OC)c4O)C[C@@H]([C@H](C#N)N12)N3C")
0.0008
>>> observed("COc1c(C)cc2c(c1O)C1C3Cc4c(OC(C)=O)c(C)c5c(c4C(COC(=O)C=Cc4ccccc4)N3C(C#N)C(C2)N1C)OCO5 (stereo not shown)")
0.0007

Proceed to the following item.
Short answer for CCCC(=O)OCC1c2c(c(OC(C)=O)c(C)c3c2OCO3)CC2C3c4c(cc(C)c(OC)c4O)CC(C(C#N)N12)N3C (stereo not shown) : IC50 was 0.0008
